Molecular target: 5-hydroxytryptamine receptor 1A (Rattus norvegicus, UniProt P19327)
Sequence (P19327 whole entry): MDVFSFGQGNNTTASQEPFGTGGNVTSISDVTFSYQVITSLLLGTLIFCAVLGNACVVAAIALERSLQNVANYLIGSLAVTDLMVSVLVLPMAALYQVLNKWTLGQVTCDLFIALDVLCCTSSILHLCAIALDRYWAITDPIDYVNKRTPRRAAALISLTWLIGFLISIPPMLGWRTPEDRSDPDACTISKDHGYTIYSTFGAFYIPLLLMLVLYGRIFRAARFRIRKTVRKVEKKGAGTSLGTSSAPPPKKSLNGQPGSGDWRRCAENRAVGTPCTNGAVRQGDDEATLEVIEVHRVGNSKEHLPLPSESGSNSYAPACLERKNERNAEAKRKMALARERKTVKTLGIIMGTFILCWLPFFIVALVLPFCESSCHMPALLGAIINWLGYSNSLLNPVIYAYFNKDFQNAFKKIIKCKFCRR
Assay: Displacement of [3H]8-OH-DPAT from 5HT1A receptor in CRL:CD(SD)BR-COBS rat hippocampus
Type: tissue-based
Could you mark each record YES if its Ki falls strictly under 10 nM, and NO if it equals or exceeds it?

INSERT INTO measurements (mol, label_class) VALUES
  ('COc1ccccc1N1CCN(CCSc2nc3ccccc3o2)CC1', 'NO'),
  ('COc1ccccc1N1CCN(CCCSc2nc3ccccc3s2)CC1', 'YES'),
  ('c1cnc(N2CCN(CCCSc3nc4ccccc4o3)CC2)nc1', 'NO'),
  ('COc1ccccc1N1CCN(CCCCCCSc2nc3ccccc3o2)CC1', 'YES'),
  ('O=[N+]([O-])c1ccccc1N1CCN(CCSc2nc3ccccc3[nH]2)CC1', 'NO'),
  ('O=[N+]([O-])c1ccccc1N1CCN(CCSc2nc3ccccc3o2)CC1', 'NO'),
  ('c1cnc(N2CCN(CCCSc3nc4ccccc4s3)CC2)nc1', 'YES'),
  ('COc1ccccc1N1CCN(CCSc2nc3ccccc3[nH]2)CC1', 'NO'),
  ('COc1ccccc1N1CCN(CCCCCCSc2nc3ccccc3s2)CC1', 'YES'),
  ('O=[N+]([O-])c1ccccc1N1CCN(CCCSc2nc3ccccc3s2)CC1', 'YES'),
  ('COc1ccccc1N1CCN(CCCSc2nc3ccccc3[nH]2)CC1', 'YES'),
  ('COc1ccccc1N1CCN(CCCSc2nc3ccccc3n2C)CC1', 'YES'),
  ('COc1ccccc1N1CCN(CCCCSc2nc3ccccc3o2)CC1', 'YES'),
  ('c1ccc(N2CCN(CCCSc3nc4ccccc4s3)CC2)nc1', 'YES');

###

experiment: Displacement of [3H]prazosin from adrenergic receptor alpha1 in CRL:CD(SD)BR-COBS rat brain cortex
pKi: −log10 of the molar value.
metric name: pKi

INSERT INTO results (compound, bound_type, numeric_value) VALUES
  ('O=[N+]([O-])c1ccccc1N1CCN(CCSc2nc3ccccc3o2)CC1', '=', 5.72),
  ('COc1ccccc1N1CCN(CCCSc2nc3ccccc3n2C)CC1', '=', 7.70),
  ('O=[N+]([O-])c1ccccc1N1CCN(CCCSc2nc3ccccc3[nH]2)CC1', '=', 7.11),
  ('COc1ccccc1N1CCN(CCSc2nc3ccccc3o2)CC1', '=', 6.56),
  ('COc1ccccc1N1CCN(CCSc2nc3ccccc3s2)CC1', '=', 6.68),
  ('COc1ccccc1N1CCN(CCCCSc2nc3ccccc3o2)CC1', '=', 7.11),
  ('COc1ccccc1N1CCN(CCCCCCSc2nc3ccccc3o2)CC1', '=', 7.28),
  ('COc1ccccc1N1CCN(CCCSc2nc3ccccc3s2)CC1', '=', 7.48),
  ('COc1ccccc1N1CCN(CCCSc2nc3cc(Cl)ccc3s2)CC1', '=', 7.66),
  ('c1ccc(N2CCN(CCCSc3nc4ccccc4o3)CC2)nc1', '=', 7.01),
  ('c1cnc(N2CCN(CCCSc3nc4ccccc4s3)CC2)nc1', '=', 6.48),
  ('O=[N+]([O-])c1ccccc1N1CCN(CCSc2nc3ccccc3s2)CC1', '<', 5.00),
  ('O=[N+]([O-])c1ccccc1N1CCN(CCCSc2nc3ccccc3o2)CC1', '=', 6.90),
  ('c1cnc(N2CCN(CCCSc3nc4ccccc4o3)CC2)nc1', '=', 5.78),
  ('O=C1c2ccccc2S(=O)(=O)N1CCCCN1CCN(c2ncccn2)CC1 [IPSAPIRONE]', '=', 6.70);
